- TESTED ON: recombinant human dipeptidyl peptidase-IV (DPP4) (Homo sapiens)
- Construct: purchased Sigma-Aldrich Co. (Saint Louis, MO, USA)
- Sequence (P27487 whole entry): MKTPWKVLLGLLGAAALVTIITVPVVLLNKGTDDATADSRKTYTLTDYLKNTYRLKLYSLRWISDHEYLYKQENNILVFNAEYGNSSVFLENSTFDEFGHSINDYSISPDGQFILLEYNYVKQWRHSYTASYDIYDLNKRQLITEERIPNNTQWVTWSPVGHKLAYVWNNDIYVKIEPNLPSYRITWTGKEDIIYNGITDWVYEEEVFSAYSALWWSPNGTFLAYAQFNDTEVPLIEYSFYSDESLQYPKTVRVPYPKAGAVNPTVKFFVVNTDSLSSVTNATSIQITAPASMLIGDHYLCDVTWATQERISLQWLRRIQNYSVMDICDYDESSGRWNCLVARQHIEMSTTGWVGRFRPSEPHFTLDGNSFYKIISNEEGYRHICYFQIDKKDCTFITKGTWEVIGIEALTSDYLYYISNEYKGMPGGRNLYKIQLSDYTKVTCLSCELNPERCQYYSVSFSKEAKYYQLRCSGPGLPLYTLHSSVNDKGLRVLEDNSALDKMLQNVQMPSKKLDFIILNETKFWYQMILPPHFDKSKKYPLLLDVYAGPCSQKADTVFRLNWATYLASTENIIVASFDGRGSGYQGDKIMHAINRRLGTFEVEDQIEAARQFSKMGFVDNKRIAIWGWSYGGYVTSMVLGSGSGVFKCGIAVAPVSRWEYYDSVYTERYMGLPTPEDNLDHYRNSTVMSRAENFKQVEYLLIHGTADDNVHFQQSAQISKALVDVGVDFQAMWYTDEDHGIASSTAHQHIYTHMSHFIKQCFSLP
- PROTOCOL: DPP4 inhibitory (DPP4I) activity assay, GP-pNA substrate, absorbance 405 nm
- Assay type: biochemical
- CONDITION DESCRIPTION: seven logarithmic concentrations, non-linear interpolation; mean ± SD, triplicate
No end group written: not given here.
QUANTITY: pIC50
In plain terms, pIC50 is the concentration in mol/L turned into minus its base-10 logarithm.

// returns pIC50 for APLVSW [AW6, APLVSW] with recombinant human dipeptidyl peptidase-IV (DPP4) (Homo sapiens); value = 3.84
